The measurements presented in this section are drawn from the supplement of paper PMC10567573.

Please go through the items and note down their protein stability index.
B1: TRIM43 (parent)
chain: RAQMIRNEYRKLHPVLHKEEKQHL

Variants of: B1
Test: protein stability index of a GFP-peptide fusion (GPS, HEK-293T) (PSI 1-6); higher = more stable;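 note: lentivirally expressed fusions sorted by FACS into six bins by GFP to DsRed ratio, PSI derived from sequencing read proportions per bin multiplied by bin number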
Details: c terminus: a fixed tail appended

I would be grateful if you could share the reported protein stability index for RAQMIRNEYAKLHPVLHKEEKQHL [R10A] .
3.08

Tell me the measured protein stability index of RAQMIRCEYRKLHPVLHKEEKQHL [N7C] , please.
3

Using the record for RAQMIANEYRKLHPVLHKEEKQHL [R6A] , report its protein stability index.
3.07

Can you look up the measured protein stability index of QAQMIRNEYRKLHPVLHKEEKQHL [R1Q] for me?
3.04

// returns reported protein stability index for input RAQMIRNEYWKLHPVLHKEEKQHL [R10W]
2.99

Tell me the measured protein stability index of RAQMIRNEYRKLHPVLHKEEDQHL [K21D] , please.
3.82

Any idea what protein stability index was measured for RAQMIRNEYRKLHPVLHLEEKQHL [K18L] ?
2.95

Using the record for RAQMIRNEYRKLHPVLHPEEKQHL [K18P] , report its protein stability index.
3.48

Look up protein stability index: WAQMIRNEYRKLHPVLHKEEKQHL [R1W]
1.92

Record request: protein stability index value, item RAQMIRNEYRKLHTVLHKEEKQHL [P14T]
2.77

# lookup: protein stability index of RAQMIRNEYRWLHPVLHKEEKQHL [K11W]
3.14

Give its protein stability index value. Item: RAQMIRNEYIKLHPVLHKEEKQHL [R10I]
3.75

If you can, please state the reported protein stability index value of RAQMIRNEYRKLHPVLHKEEKQHN [L24N] .
4.01

protein stability index lookup needed for RAQMIRNKYRKLHPVLHKEEKQHL [E8K] , thanks.
2.92

Recorded protein stability index of RAQMIRNEYRKLHPVLHVEEKQHL [K18V] , please.
3.26

Suppose we examine the variant RAIMIRNEYRKLHPVLHKEEKQHL [Q3I] ; what protein stability index value has been reported?
2.78

Please give the measured protein stability index for this variant: RAQMIRNEYRKLHPVLHKEEKQAL [H23A]
3.08

Item under review: RAQMIRNEYRKLHPVLHKEEKQHE [L24E] . Reported protein stability index?
4.61

I am curious: what protein stability index value has been reported for RAQMIRNEYRKLHPVLHKEEKSHL [Q22S] ?
3.3

For the variant shown here, RLQMIRNEYRKLHPVLHKEEKQHL [A2L] , give the reported protein stability index.
2.96

# input variant: RAQMIRNEYRKCHPVLHKEEKQHL [L12C] ; wanted: its protein stability index
3.03

Which measured protein stability index value corresponds to RAQMIRNEYRKLHVVLHKEEKQHL [P14V] ?
2.59

What does the record list as protein stability index for RAQMIRNEYRKLHPVLHKEEKKHL [Q22K] ?
2.99

// query protein stability index value for entry RAQMIRNEYRKLHPWLHKEEKQHL [V15W]
2.5

What does the record list as protein stability index for RAQMIRNEYRKLHPVLHKEEKQNL [H23N] ?
3.13

# input variant: RAQMIRNEYRKLHPVLVKEEKQHL [H17V] ; wanted: its protein stability index
3.74

Tell me the measured protein stability index of RAQMIMNEYRKLHPVLHKEEKQHL [R6M] , please.
2.19

Would you mind telling me what protein stability index value was observed for RAQMIRNEWRKLHPVLHKEEKQHL [Y9W] ?
2.44

Please report the recorded protein stability index for RAQMIRNEYRKLHPVLHKEEKQDL [H23D] .
4.45

Reported protein stability index for RAQMIRNEYCKLHPVLHKEEKQHL [R10C] : what is it?
3.19

Which protein stability index is listed for RAQMIRNEYRKLHPVLHKEEVQHL [K21V] ?
3.37

# get_value(readout='protein stability index', item= RAQMSRNEYRKLHPVLHKEEKQHL [I5S] )
3.67

Which protein stability index is listed for RAQMIRNEYSKLHPVLHKEEKQHL [R10S] ?
3.71

So what does the record say about protein stability index for RAQMIRNEYRKLHPVLHKDEKQHL [E19D] ?
3.02

Recorded protein stability index for RAQMIRTEYRKLHPVLHKEEKQHL [N7T] , please?
3.3

Could you share which protein stability index value was measured for RAQMIRNEYRKLHPVLHKEECQHL [K21C] ?
3.18

Entry under review: RAQMIRNEYRKLRPVLHKEEKQHL [H13R] . Reported protein stability index?
2.69

What measured protein stability index goes with RAQMIYNEYRKLHPVLHKEEKQHL [R6Y] ?
2.57

For the variant RAQMIRNEYRKLHPVLHKEELQHL [K21L] , what protein stability index is on record?
2.4

protein stability index lookup needed for RAQEIRNEYRKLHPVLHKEEKQHL [M4E] , thanks.
3.86

Need protein stability index, item RAQMIRNPYRKLHPVLHKEEKQHL [E8P]
2.72

# query: protein stability index of entry RAQMIRNEYRKLHPVLHKEEEQHL [K21E]
4.63

Look up protein stability index for this variant: RAQMILNEYRKLHPVLHKEEKQHL [R6L]
2.15

Param item = RAQMLRNEYRKLHPVLHKEEKQHL [I5L] ; retrieve measured protein stability index.
3.92

# protein stability index lookup, item RAFMIRNEYRKLHPVLHKEEKQHL [Q3F]
2.33
